Record form. Attribute: GI50. Fill in for each entry.
Tested on: MDA-MB-468
assayRemarks: Antiproliferative activity against human MDA-MB-468 cells assessed as reduction in cell growth
Format: functional
One number for each entry, in nM.

COc1cccc(-c2nn(-c3ccccc3)cc2-c2ccnc(NCCNC(=O)Nc3cccc(C(F)(F)F)c3)c2)c1
1700
COc1cccc(-c2nn(-c3ccccc3)cc2-c2ccnc(NCCCNC(=O)Nc3ccc(Cl)c(Cl)c3)c2)c1
1920
COc1cccc(-c2nn(-c3ccccc3)cc2-c2ccnc(NCCCNC(=O)c3cccc(C(F)(F)F)c3)c2)c1
1950
O=C(NCCCNc1cc(-c2cn(-c3ccccc3)nc2-c2cccc(O)c2)ccn1)c1ccc(F)cc1
1590
CNC(=O)c1cc(Oc2ccc(NC(=O)Nc3ccc(Cl)c(C(F)(F)F)c3)cc2)ccn1
1990

API: the following record is the query input.
Let me know recorded GI50 for O=C(NCCCNc1cc(-c2cn(-c3ccccc3)nc2-c2cccc(O)c2)ccn1)c1ccccc1 , thanks.
1380

----------
experimentalSystem: RAF proto-oncogene serine/threonine-protein kinase (Homo sapiens)
assayRemarks: Inhibition of RAF1 (unknown origin) at 10 uM using […] as substrate incubated for 40 mins in presence of [gamma33P]ATP by scintillation counting based hotspot kinase assay relative to control
valueType: inhibition (%)
Give bare numbers, in %.

# annotated cases, reported inhibition shown
O=C(NCCCNc1cc(-c2cn(-c3ccccc3)nc2-c2cccc(O)c2)ccn1)c1ccc(F)cc1
36.4
COc1cccc(-c2nn(-c3ccccc3)cc2-c2ccnc(NCCCNC(=O)Nc3ccc(Cl)c(Cl)c3)c2)c1
87.7
COc1cccc(-c2nn(-c3ccccc3)cc2-c2ccnc(NCCNC(=O)Nc3cccc(C(F)(F)F)c3)c2)c1
45.1

Let me know recorded inhibition for O=C(NCCCNc1cc(-c2cn(-c3ccccc3)nc2-c2cccc(O)c2)ccn1)c1ccccc1 , thanks.
39.6

----------
System: Serine/threonine-protein kinase B-raf (Homo sapiens), P15056 [V600E]
Sequence (P15056 whole entry V600E): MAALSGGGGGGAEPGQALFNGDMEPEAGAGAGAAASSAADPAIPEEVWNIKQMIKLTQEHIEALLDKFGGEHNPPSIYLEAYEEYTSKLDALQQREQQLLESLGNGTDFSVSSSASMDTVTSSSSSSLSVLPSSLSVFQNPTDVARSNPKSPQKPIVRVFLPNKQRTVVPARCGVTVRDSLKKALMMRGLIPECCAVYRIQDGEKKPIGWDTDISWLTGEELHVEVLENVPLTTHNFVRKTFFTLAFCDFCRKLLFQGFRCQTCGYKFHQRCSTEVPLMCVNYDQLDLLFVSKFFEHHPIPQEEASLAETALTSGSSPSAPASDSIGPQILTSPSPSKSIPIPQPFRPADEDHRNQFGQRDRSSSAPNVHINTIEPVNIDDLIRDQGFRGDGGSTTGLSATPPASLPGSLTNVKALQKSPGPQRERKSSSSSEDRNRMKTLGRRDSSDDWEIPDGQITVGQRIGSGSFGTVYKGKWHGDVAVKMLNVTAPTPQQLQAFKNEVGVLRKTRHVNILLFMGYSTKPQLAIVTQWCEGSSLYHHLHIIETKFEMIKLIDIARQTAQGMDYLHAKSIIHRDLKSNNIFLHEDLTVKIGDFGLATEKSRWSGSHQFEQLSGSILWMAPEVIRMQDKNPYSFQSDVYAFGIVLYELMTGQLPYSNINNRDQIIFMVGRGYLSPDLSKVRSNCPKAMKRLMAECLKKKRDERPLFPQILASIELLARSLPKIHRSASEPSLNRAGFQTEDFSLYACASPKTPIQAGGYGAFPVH
assayRemarks: Inhibition of B-RAF V600E mutant (unknown origin) at 10 uM using […] as substrate incubated for 40 mins in presence of [gamma33P]ATP by scintillation counting based hotspot kinase assay relative to control
Record form. Attribute: inhibition. Fill in for each entry.
One number for each entry, in %.

Field: inhibition. Fill in for each record below.
1. COc1cccc(-c2nn(-c3ccccc3)cc2-c2ccnc(NCCNC(=O)Nc3cccc(C(F)(F)F)c3)c2)c1
2. COc1cccc(-c2nn(-c3ccccc3)cc2-c2ccnc(NCCCNC(=O)Nc3ccc(Cl)c(Cl)c3)c2)c1
3. O=C(NCCCNc1cc(-c2cn(-c3ccccc3)nc2-c2cccc(O)c2)ccn1)c1ccc(F)cc1
4. O=C(NCCCNc1cc(-c2cn(-c3ccccc3)nc2-c2cccc(O)c2)ccn1)c1ccccc1

[36.2, 90.4, 40.1, 34.4]

----------
Test system: NCI/ADR-RES
assayRemarks: Antiproliferative activity against human NCI/ADR-RES cells assessed as total growth inhibition
Type: functional
Record form. Attribute: TGI. Fill in for each entry.
One number for each entry, in µM.

Field: TGI. Fill in for each record below.
1. O=C(NCCCNc1cc(-c2cn(-c3ccccc3)nc2-c2cccc(O)c2)ccn1)c1ccc(F)cc1
2. COc1cccc(-c2nn(-c3ccccc3)cc2-c2ccnc(NCCNC(=O)Nc3cccc(C(F)(F)F)c3)c2)c1
3. O=C(NCCCNc1cc(-c2cn(-c3ccccc3)nc2-c2cccc(O)c2)ccn1)c1ccccc1
4. CNC(=O)c1cc(Oc2ccc(NC(=O)Nc3ccc(Cl)c(C(F)(F)F)c3)cc2)ccn1

1. 5.82
2. 5.75
3. 9.79
4. 15.8

Let me know recorded TGI for COc1cccc(-c2nn(-c3ccccc3)cc2-c2ccnc(NCCCNC(=O)Nc3ccc(Cl)c(Cl)c3)c2)c1 , thanks.
5.39

----------
experimentalSystem: RAF proto-oncogene serine/threonine-protein kinase (Homo sapiens, UniProt P04049)
Sequence (P04049 whole entry): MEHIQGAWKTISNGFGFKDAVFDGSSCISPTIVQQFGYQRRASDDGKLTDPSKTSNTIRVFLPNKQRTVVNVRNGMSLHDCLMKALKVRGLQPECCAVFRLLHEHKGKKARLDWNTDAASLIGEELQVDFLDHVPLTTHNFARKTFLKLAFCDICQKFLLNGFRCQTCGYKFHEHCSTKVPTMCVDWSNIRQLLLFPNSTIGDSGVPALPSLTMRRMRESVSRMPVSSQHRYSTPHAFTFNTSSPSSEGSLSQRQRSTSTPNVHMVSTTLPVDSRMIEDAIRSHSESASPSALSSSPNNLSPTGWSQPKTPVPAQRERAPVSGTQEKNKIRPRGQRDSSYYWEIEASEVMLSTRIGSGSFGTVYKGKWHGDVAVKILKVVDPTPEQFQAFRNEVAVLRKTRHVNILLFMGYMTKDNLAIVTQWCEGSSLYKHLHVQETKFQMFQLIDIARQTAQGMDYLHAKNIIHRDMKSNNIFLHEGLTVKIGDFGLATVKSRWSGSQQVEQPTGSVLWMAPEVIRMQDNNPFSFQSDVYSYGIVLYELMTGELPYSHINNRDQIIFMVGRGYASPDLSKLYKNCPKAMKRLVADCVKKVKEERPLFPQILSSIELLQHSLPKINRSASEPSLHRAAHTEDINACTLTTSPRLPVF
valueType: IC50 (µM)
Answers are plain numbers, in µM.

Let me know recorded IC50 for COc1cccc(-c2nn(-c3ccccc3)cc2-c2ccnc(NCCCNC(=O)Nc3ccc(Cl)c(Cl)c3)c2)c1 , thanks.
1.5

----------
Test system: K562
assayRemarks: Antiproliferative activity against human K562 cells assessed as reduction in cell growth
Assay type: functional
Record form. Attribute: GI50. Fill in for each entry.
One number for each entry, in nM.

# annotated cases, reported GI50 shown
O=C(NCCCNc1cc(-c2cn(-c3ccccc3)nc2-c2cccc(O)c2)ccn1)c1ccccc1
750
CNC(=O)c1cc(Oc2ccc(NC(=O)Nc3ccc(Cl)c(C(F)(F)F)c3)cc2)ccn1
3160
O=C(NCCCNc1cc(-c2cn(-c3ccccc3)nc2-c2cccc(O)c2)ccn1)c1ccc(F)cc1
1930

Field: GI50. Fill in for each record below.
1. COc1cccc(-c2nn(-c3ccccc3)cc2-c2ccnc(NCCNC(=O)Nc3cccc(C(F)(F)F)c3)c2)c1
2. COc1cccc(-c2nn(-c3ccccc3)cc2-c2ccnc(NCCCNC(=O)Nc3ccc(Cl)c(Cl)c3)c2)c1
3. COc1cccc(-c2nn(-c3ccccc3)cc2-c2ccnc(NCCCNC(=O)c3cccc(C(F)(F)F)c3)c2)c1

1. 2130
2. 2380
3. 3690

----------
experimentalSystem: Serine/threonine-protein kinase B-raf (Homo sapiens)
assayRemarks: Inhibition of B-RAF (unknown origin) at 10 uM using […] as substrate incubated for 40 mins in presence of [gamma33P]ATP by scintillation counting based hotspot kinase assay relative to control
valueType: inhibition (%)
One number for each entry, in %.

O=C(NCCCNc1cc(-c2cn(-c3ccccc3)nc2-c2cccc(O)c2)ccn1)c1ccccc1
10.8
COc1cccc(-c2nn(-c3ccccc3)cc2-c2ccnc(NCCCNC(=O)Nc3ccc(Cl)c(Cl)c3)c2)c1
56.9
O=C(NCCCNc1cc(-c2cn(-c3ccccc3)nc2-c2cccc(O)c2)ccn1)c1ccc(F)cc1
22.5

Let me know recorded inhibition for COc1cccc(-c2nn(-c3ccccc3)cc2-c2ccnc(NCCNC(=O)Nc3cccc(C(F)(F)F)c3)c2)c1 , thanks.
14

----------
experimentalSystem: Epidermal growth factor receptor (Homo sapiens) (UniProt P00533)
Sequence (P00533 whole entry): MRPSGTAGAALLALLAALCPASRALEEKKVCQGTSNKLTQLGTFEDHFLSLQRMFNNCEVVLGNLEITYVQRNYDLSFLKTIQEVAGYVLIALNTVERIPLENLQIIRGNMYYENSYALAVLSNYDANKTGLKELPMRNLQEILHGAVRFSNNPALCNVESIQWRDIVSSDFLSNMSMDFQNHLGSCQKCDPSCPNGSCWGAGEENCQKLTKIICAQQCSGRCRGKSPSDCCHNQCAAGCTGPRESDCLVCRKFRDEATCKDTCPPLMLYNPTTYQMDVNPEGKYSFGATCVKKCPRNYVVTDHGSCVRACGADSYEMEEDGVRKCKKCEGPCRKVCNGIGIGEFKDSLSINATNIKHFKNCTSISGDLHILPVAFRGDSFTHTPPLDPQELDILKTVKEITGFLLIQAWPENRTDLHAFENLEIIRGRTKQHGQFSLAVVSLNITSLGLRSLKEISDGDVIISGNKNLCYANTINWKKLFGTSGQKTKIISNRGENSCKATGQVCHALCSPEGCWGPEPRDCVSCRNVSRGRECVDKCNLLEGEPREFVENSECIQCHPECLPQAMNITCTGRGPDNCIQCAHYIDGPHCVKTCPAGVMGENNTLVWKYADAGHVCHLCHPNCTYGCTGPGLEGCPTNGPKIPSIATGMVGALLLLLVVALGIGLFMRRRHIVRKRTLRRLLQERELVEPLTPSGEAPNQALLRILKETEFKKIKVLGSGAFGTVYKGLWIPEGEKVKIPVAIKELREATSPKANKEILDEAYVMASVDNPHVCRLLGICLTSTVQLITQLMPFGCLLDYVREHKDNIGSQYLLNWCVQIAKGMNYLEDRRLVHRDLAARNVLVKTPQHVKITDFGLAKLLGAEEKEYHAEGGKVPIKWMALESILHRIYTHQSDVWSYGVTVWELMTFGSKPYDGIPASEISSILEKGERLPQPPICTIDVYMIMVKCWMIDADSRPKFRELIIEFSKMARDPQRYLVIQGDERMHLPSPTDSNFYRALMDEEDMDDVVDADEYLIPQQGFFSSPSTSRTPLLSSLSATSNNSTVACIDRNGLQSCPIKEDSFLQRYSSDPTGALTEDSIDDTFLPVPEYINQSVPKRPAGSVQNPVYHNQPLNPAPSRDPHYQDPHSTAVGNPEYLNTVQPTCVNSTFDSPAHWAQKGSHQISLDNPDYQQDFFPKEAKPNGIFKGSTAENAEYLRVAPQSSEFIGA
assayRemarks: Inhibition of EGFR (unknown origin) at 10 uM using […] as substrate incubated for 40 mins in presence of [gamma33P]ATP by scintillation counting based hotspot kinase assay relative to control
valueType: inhibition (%)
Answers are plain numbers, in %.

O=C(NCCCNc1cc(-c2cn(-c3ccccc3)nc2-c2cccc(O)c2)ccn1)c1ccccc1
3.72
COc1cccc(-c2nn(-c3ccccc3)cc2-c2ccnc(NCCCNC(=O)Nc3ccc(Cl)c(Cl)c3)c2)c1
3.38
O=C(NCCCNc1cc(-c2cn(-c3ccccc3)nc2-c2cccc(O)c2)ccn1)c1ccc(F)cc1
15.7

API: the following record is the query input.
Let me know recorded inhibition for COc1cccc(-c2nn(-c3ccccc3)cc2-c2ccnc(NCCNC(=O)Nc3cccc(C(F)(F)F)c3)c2)c1 , thanks.
-2.09

----------
Test system: Panel renal (Carcinoma cell lines)
assayRemarks: Antiproliferative activity against human Panel renal (8 Carcinoma cell lines) assessed as reduction in mean cell growth
Type: functional
valueType: GI50 (µM)
One number for each entry, in µM.

# annotated cases, reported GI50 shown
COc1cccc(-c2nn(-c3ccccc3)cc2-c2ccnc(NCCNC(=O)Nc3cccc(C(F)(F)F)c3)c2)c1
2.14
CNC(=O)c1cc(Oc2ccc(NC(=O)Nc3ccc(Cl)c(C(F)(F)F)c3)cc2)ccn1
2.94
O=C(NCCCNc1cc(-c2cn(-c3ccccc3)nc2-c2cccc(O)c2)ccn1)c1ccccc1
3.63
COc1cccc(-c2nn(-c3ccccc3)cc2-c2ccnc(NCCNC(=O)Nc3ccc(Cl)c(Cl)c3)c2)c1
4.63
O=C(NCCCNc1cc(-c2cn(-c3ccccc3)nc2-c2cccc(O)c2)ccn1)c1ccc(F)cc1
2.84

Let me know recorded GI50 for COc1cccc(-c2nn(-c3ccccc3)cc2-c2ccnc(NCCCNC(=O)Nc3ccc(Cl)c(Cl)c3)c2)c1 , thanks.
3.14
